# Measurement target: Neurogenic locus notch homolog protein 3 (Homo sapiens)
# Protocol summary: small molecules binding NOTCH3 protein – biochemical, 635/667 nm fluorescence, primary screen (AID 1096)
# Study conditions: small-molecule microarray, 635 nm fluorescence, higher = more signal
Endpoint name: composite z-score
Lab note: record the figure alone, no unit after it.

q: Dear colleague, please send me the reported composite z-score for CCCC[C@@H]1C[C@H]1[C@@H](NC(=O)c1ccccc1)c1ccccc1 when you can.
a: 0.571

q: Give the value of composite z-score reported for the following: C=C(C)[C@@H]1CC=C(C(O)C2C=CC3C(=O)N(Cc4ccccc4)C(=O)C3N2n2cnnc2)CC1 (some centres not stated)
a: -0.191

q: State its composite z-score for this compound: C=CCN1Cc2ccccc2C[C@]2(N=C(c3ccc(OCCCO)cc3)O[C@@H]2c2ccccc2)C1=O
a: 1.07

q: Fill in reported composite z-score for this entry: COC(=O)c1c2oc(c1C(=O)OC)C(=O)N[C@H](Cc1ccccc1)Cn1nncc1C1(CCCCC1)NC(=O)N[C@H](CO)CC2
a: 0.17

q: Answer with the recorded composite z-score for the compound listed here: O=C1O[C@@H](c2ccccc2)[C@@H](c2ccccc2)N2[C@@H](c3ccccc3OCCO)[C@]3(C(=O)Nc4ccc(C#CC5(O)CCCCCC5)cc43)[C@@H](C(=O)NC[C@H](O)c3ccccc3)[C@H]12
a: 1.05

q: Specify composite z-score for C[N+](C)(C)CCCC[C@@H]1NC(=O)[C@@H]2C[C@H](C(=O)NCCCCCCNC(=O)CS)[C@H](c3cccc(OCCO)c3)N2C1=O and stop.
a: -0.0644

q: Please report the measured composite z-score for CC(c1ccccc1)C(O)C1C=CC2C(=O)N(c3ccccc3)C(=O)C2N1Nc1ccccc1F (configuration not stated)
a: 1.14

q: Return reported composite z-score. Input compound: CN1C(=O)C2C=CC(C(O)C(C)(C)C)N(Nc3ccccc3)C2C1=O (configuration not stated)
a: -0.784

q: Quickly give me recorded composite z-score for CC(C)C[C@@H]1NC(=O)[C@@H]2C[C@H](C(=O)NCCCCN(C)C)[C@H](c3ccc(O)cc3)N2C1=O
a: -0.531

q: Determine from records and report composite z-score for O=c1cccc(-c2ccccc2)o1
a: -0.435

q: Provide composite z-score value for the following compound: CC(C)(C)OC(=O)CC[C@@]1(C(N)=O)N=C(c2ccc(OCCCO)cc2)O[C@@H]1c1ccccc1N=[N+]=[N-]
a: 0.976

q: Look up and report measured composite z-score for this entry: C=C(CCCC)C(=O)CC[C@@H](OC(=O)c1ccccc1-c1ccccc1C(=O)O)c1ccc(CO)o1
a: 0.534

q: Write down composite z-score measured for item O=C1C2C=CC(C(O)CCc3ccccc3)N(Nc3ccccc3)C2C(=O)N1c1ccccc1 (configuration not stated)
a: 1.02

q: Give the value of composite z-score reported for the following: O=C(NCC(F)(F)F)[C@@H]1c2ccccc2C(=O)N(Cc2ccccc2)[C@H]1c1ccc(CO)cc1
a: -0.612

q: Please indicate composite z-score recorded for Cc1cccc(/C=C/C=O)c1
a: -0.136

q: Given the compound O=C1O[C@@H](c2ccccc2)[C@@H](c2ccccc2)N2[C@@H](c3ccc(O)cc3)[C@]3(C(=O)Nc4ccccc43)[C@@H](C(=O)N3CCCCCCC3)[C@H]12 , write its reported composite z-score.
a: 0.896

q: Indicate its recorded composite z-score; the compound in question is C=C(/C(=C/C[C@@H](OC(=O)c1ccncc1)c1ccc(CO)o1)c1cc(C(=O)OC)ccc1OC)C(C)C
a: 1.03
